tested on: barnyardgrass (Echinochloa crus-galli); assay: Test G Pre-Emergence Protocol; assay type: in vivo; details: Echinochloa crus-galli, pre-emergence, 312 h, 62.5 g ai/ha, evaluated after 13 days, 100=total damage to plant, 0=no damage to plant, read-out: plant damage rating, Barnyardgrass
RESULT_TYPE: pest or weed control at 62.5 g/ha (%)
Write the answer as a number in %, unit excluded.

Record excerpt, results attached:
Cc1nc(NC(=O)[C@@H]2C(=O)N(C)C[C@H]2c2ccc(C(F)(F)F)cc2)ccc1Cl (racemic) : 0
CN1C[C@@H](c2cc(Cl)nc(C(F)(F)F)c2)[C@H](C(=O)Nc2cccc(F)c2F)C1=O (racemic) : 90

molecule C=CCc1c(Cl)cccc1NC(=O)[C@H]1C(=O)N(C)C[C@H]1c1ccc(C(F)(F)F)cc1 (racemic) , pest or weed control at 62.5 g/ha observed: 0

molecule COC(=O)c1sccc1NC(=O)[C@@H]1C(=O)N(C)C[C@H]1c1ccc(C(F)(F)F)cc1 (racemic) , pest or weed control at 62.5 g/ha observed: 0

###

Collected pest or weed control at 31 g/ha values appear next to each entry.
system: barnyardgrass (Echinochloa crus-galli); assay: Test A preemergence; format: in vivo; settings: Echinochloa crus-galli, pre-emergence, 240 h, 31 g ai/ha, Preemergence; 0 to 100 scale where 0 is no effect and 100 is complete control; read-out: Barnyardgrass plant response rating
Respond with the figure and its unit, in that order.

CN1C[C@H](c2ccc(C(F)(F)F)cc2)[C@@H](C(=O)Nc2cccc(F)n2)C1=O : 90%
C=C(C)c1cccc([C@H]2CN(C)C(=O)[C@@H]2C(=O)Nc2ccc(F)c(F)c2F)c1 : 0%
Cc1ccncc1NC(=O)[C@H]1C(=O)N(C)C[C@@H]1c1ccc2c(c1)OC(F)(F)O2 : 0%
Cc1ccc([C@H]2CN(C)C(=O)[C@@H]2C(=O)Nc2cc(F)c(F)c(F)c2F)cc1 : 40%
O=C(Nc1ccccc1F)[C@H]1C(=O)N(CC(F)F)C[C@@H]1c1cccc(C(F)(F)F)c1 : 0%
O=C1NC[C@H](c2ccc(C(F)(F)F)cn2)[C@H]1C(=O)Nc1cccc(F)c1F : 0%

compound Cn1ccc2ccc([C@H]3CNC(=O)[C@@H]3C(=O)Nc3ccccc3F)cc21 , pest or weed control at 31 g/ha observed: 0%

compound CN1C[C@H](c2csc3c2CCCC3)[C@@H](C(=O)Nc2cccc(F)c2F)C1=O , pest or weed control at 31 g/ha observed: 90%

compound Cc1ccc([C@H]2CN(C)C(=O)[C@@H]2C(=O)Nc2cccc(F)c2C)cc1 , pest or weed control at 31 g/ha observed: 90%

###

tested on: barnyardgrass (Echinochloa crus-galli); experiment: Test A preemergence; format: in vivo; settings: Echinochloa crus-galli, pre-emergence, 240 h, 31 g ai/ha, Preemergence; 0 to 100 scale where 0 is no effect and 100 is complete control; read-out: Barnyardgrass plant response rating
Collected pest or weed control at 31 g/ha values appear next to each entry.
Write the answer as a number in %, unit excluded.

Record excerpt, results attached:
CN1C[C@H](c2cccc(C#N)c2)[C@@H](C(=O)Nc2ccc(F)c(F)c2F)C1=O : 90
CN1C[C@H](c2ccc(C(F)(F)F)cc2)[C@@H](C(=O)Nc2ccc(F)nc2F)C1=O : 80

molecule Cc1cc([C@H]2CN(C)C(=O)[C@@H]2C(=O)Nc2cccc(F)c2F)no1 , pest or weed control at 31 g/ha observed: 0

molecule CN1C[C@H](c2cccc(C(F)(F)F)c2)[C@@H](C(=O)Nc2ccccc2-n2cncn2)C1=O , pest or weed control at 31 g/ha observed: 20
